viability at 28.5 h, 10 µM values by entry
test.description: in vitro
setup.conditions: human, hela cells, % viability
Respond numerically; units are % and should not be typed.

Example molecules with recorded viability at 28.5 h, 10 µM:
molecule=COCCc1nc(CN(C)C)n(Cc2ccccc2C)n1 reported_measurement=87.8
molecule=Oc1cccc(-c2cc(CC3(NCc4ccc(F)cc4)COC3)no2)c1 reported_measurement=108
molecule=COCCN(Cc1cnn(C)c1)C(=O)Cc1coc2cc(C)c(Cl)cc12 reported_measurement=108
molecule=O=C(c1ccc(Cl)cc1)N1CCN(C(=O)c2cc(O)nc3ccccc23)CC1 reported_measurement=103
molecule=Cc1nc(C)c(C(=O)Nc2nn(C)c3cccc(N4CCOCC4)c23)o1 reported_measurement=83.8
molecule=Cc1nc(C)n(C2CN(S(=O)(=O)c3ccc4scnc4c3)C2)n1 reported_measurement=95.6

[in] Please look up its viability at 28.5 h, 10 µM: `O=S(=O)(Nc1nnn[nH]1)c1cccc(C(F)(F)F)c1`
[out] 108

[in] Now consider `CCSc1nnc2c3c(sc2c1N)CC(C)(C)OC3` and answer again.
[out] 95.4

[in] Now consider COc1ccc(C2=NNC(c3ccc(C(=O)O)cc3)C2)cc1 (stereo not drawn) and answer again.
[out] 78

----------
viability at 28.5 h, 10 µM values by entry
test.description: in vitro
setup.conditions: human, hela cells, % viability
Respond numerically; units are % and should not be typed.

Example compounds with recorded viability at 28.5 h, 10 µM:
compound=Cc1ccccc1OCc1nnc(SCc2c(Cl)cccc2[N+](=O)[O-])n1C reported_measurement=92.4
compound="OCC1OC(n2cnc3c(Oc4ccccc4)ncnc32)CC1O (centres unmarked)" reported_measurement=91.5
compound=CN1CCN(c2cncc(-c3ccccc3CO)n2)CC1 reported_measurement=91.8

[in] Please look up its viability at 28.5 h, 10 µM: CC1(C)C2CCC1(CS(=O)(=O)N1CCC(C(N)=O)CC1)C(=O)C2 (centres unmarked)
[out] 102

[in] Now consider `O=C1c2cccc3cccc(c23)C(=O)N1CCCSc1nnc(-c2ccncc2)n1-c1ccccc1` and answer again.
[out] 91

----------
test.description: in vitro
setup.conditions: human, hela cells, % viability
experimental.readout: viability at 28.5 h, 10 µM

[in] Please look up its viability at 28.5 h, 10 µM: Cc1ccc2[nH]c3c(c2c1)CC(NS(=O)(=O)c1c(N)noc1C)CC3 (stereo not shown)
[out] 86.6%

[in] Now consider `CCOc1ccc(S(=O)(=O)N(C)c2ccc(OCC(=O)O)cc2)cc1` and answer again.
[out] 102%

[in] Now consider `CC(C)(C)Nc1cc(NCCc2ccccc2)nc(N)n1` and answer again.
[out] 86.8%

[in] Now consider COc1ccc(C)cc1S(=O)(=O)N(CCO)c1cc(N2CCNCC2)c2occc2c1 [CBK067894C] and answer again.
[out] 86%

[in] Now consider `COc1cc(C(=O)Nc2cc(-c3nc4ncccc4o3)ccc2C)cc(OC)c1OC` and answer again.
[out] 97%

[in] Now consider `NC(=O)C1CCN(C(=O)c2cc3c(=O)n4ccccc4nc3s2)CC1` and answer again.
[out] 89.9%

[in] Now consider `COc1cc(-c2cnc(N)c(N3CCC[C@@H]3CO)n2)cc(OC)c1OC` and answer again.
[out] 101%

[in] Now consider COc1ccc([C@@]23CC[C@@H](NC(=O)Cc4ccc(Cl)cc4)CC2N(C)CC3)cc1OC (stereo partly shown) [CBK074971T] and answer again.
[out] 96%

[in] Now consider `CN(C)CCN(C)c1nc(-c2ccc(Oc3ccccc3)cc2)cn2ccnc12` and answer again.
[out] 99.8%

[in] Now consider `O=C(NCc1ccccn1)Nc1ccc2c(c1)OCO2` and answer again.
[out] 97.1%

[in] Now consider `Nc1ccc2ccc(-c3cccc(C(F)(F)F)c3)nc2n1` and answer again.
[out] 97.5%

[in] Now consider `Cc1cc([N+](=O)[O-])cc[n+]1[O-]` and answer again.
[out] 102%

[in] Now consider `Cc1ccc(CNC(=O)Cc2csc(N3CCCC3=O)n2)n1C` and answer again.
[out] 98.6%

[in] Now consider `O=C(Nc1cc(N2CCCS2(=O)=O)ccc1F)c1cccnc1O` and answer again.
[out] 97.4%

[in] Now consider `COc1ccc(-c2nc(NCc3ccccc3)n(C(=O)c3ccc([N+](=O)[O-])cc3)n2)cc1` and answer again.
[out] 92.8%

[in] Now consider `Cc1nc(NS(=O)(=O)c2c(C)noc2C)sc1C(=O)O` and answer again.
[out] 85.7%

[in] Now consider CCCCN(C)CCNC(=O)c1ccc2c(c1)NC(=O)C(N1CCCCC1)S2 (stereo not shown) and answer again.
[out] 85.1%

[in] Now consider `CSc1ncc(Cl)c(C(=O)Nc2sc3c(c2C(=O)NCc2ccco2)CCC3)n1` and answer again.
[out] 97.2%

[in] Now consider Cc1nn2cc(CNC(=O)C3Cc4ccccc4O3)nc2s1 (stereo not shown) and answer again.
[out] 73.4%

----------
viability at 28.5 h, 10 µM values by entry
test.description: in vitro
setup.conditions: human, hela cells, % viability
Respond numerically; units are % and should not be typed.

molecule=CS(=O)(=O)N1CCc2cc(S(=O)(=O)NCCc3c[nH]c4ccccc34)ccc21 reported_measurement=101
molecule=CCCc1c(C)nc2ccc(C)cc2c1SCC(=O)O reported_measurement=88.6
molecule=c1ccc(CC2CCN(CCc3c[nH]c4ccccc34)CC2)cc1 reported_measurement=94.9
molecule=Cc1ccccc1CN1CC[C@H]2[C@@H](C1)[C@H](c1ccsc1)CN2C(=O)c1ccc(F)cc1 reported_measurement=102
molecule=C#CCn1cc(CN2CCc3c(nc(C)[nH]c3=O)C2)c2ccccc21 reported_measurement=102
molecule="Cc1ccccc1Nc1nc(CN2CCC3(CCCOC3)C2)cs1 (stereo not drawn)" reported_measurement=95
molecule=CCS(=O)(=O)N1CCC(c2onc3c2CCCCC3)CC1 reported_measurement=93.5
molecule=CC(C)S(=O)(=O)n1c(=O)n(Cc2ccc(S(C)(=O)=O)cc2)c2ccccc21 reported_measurement=90.3

Turning to the following molecule.
[in] Please look up its viability at 28.5 h, 10 µM: Clc1ccc(CN2CCN(c3nccnc3OC3CCCCC3)CC2)cc1 [CBK082826T]
[out] 101

----------
viability at 28.5 h, 10 µM values by entry
test.description: in vitro
setup.conditions: human, hela cells, % viability
Respond numerically; units are % and should not be typed.

Example compounds with recorded viability at 28.5 h, 10 µM:
compound="O=C(Nc1ccccc1)c1cccc(S(=O)(=O)NCc2ccncc2)c1 [CBK269980]" reported_measurement=102
compound="O=C(Nc1ccc(NC(=O)c2cc(O)nc3ccccc23)cc1)c1ccccc1 [CBK269722]" reported_measurement=106
compound="O=C(c1ccc(SCc2cccnc2)c([N+](=O)[O-])c1)N1CCCCC1 [CBK294452]" reported_measurement=98.8
compound="O=C(O)CCc1nc2[nH]c(C(F)F)cc(=O)n2n1 [CBK286880]" reported_measurement=98.6

[in] Please look up its viability at 28.5 h, 10 µM: CC(CN1CCCC1)NC(=O)c1ccc2c(c1)ncn2C (stereo not shown) [CBK281715]
[out] 102

[in] Now consider O=[N+]([O-])c1cccc(/C=C/C=N/c2ccc3c(c2)S(=O)(=O)c2cc(/N=C/C=C/c4cccc([N+](=O)[O-])c4)ccc2-3)c1 [CBK261244] and answer again.
[out] 97.6

[in] Now consider O=C1CCc2cccc(OCCOc3nccnc3N3CCNCC3)c21 [CBK200001G] and answer again.
[out] 101

[in] Now consider CC(C)N1CCC(=NNC(=O)C(O)c2ccccc2)CC1 (stereo not shown) [CBK019361] and answer again.
[out] 110

[in] Now consider NC(=O)CSc1nnc(NC(=O)c2ccc(Cl)cc2Cl)s1 [CBK287627] and answer again.
[out] 86.4

----------
viability at 28.5 h, 10 µM values by entry
test.description: in vitro
setup.conditions: human, hela cells, % viability
Respond numerically; units are % and should not be typed.

Example compounds with recorded viability at 28.5 h, 10 µM:
compound="Cc1nc2ccccc2nc1CSc1nnc(Cc2ccccc2)n1-c1ccccc1 [CBK268360]" reported_measurement=104
compound="Cc1ccc(N2CCCC2=O)cc1S(=O)(=O)NC1C2CCCCC21 (stereo not shown) [CBK282840]" reported_measurement=69
compound="Cc1c(C)n(Cc2ccco2)c2ncnc(SCCC(=O)O)c12 [CBK307569]" reported_measurement=105
compound="O=C(O)c1cccc(NS(=O)(=O)c2ccccc2)c1 [CBK155710]" reported_measurement=79.7
compound="Oc1ccc(-c2cncc(Nc3cccc(Br)c3)n2)cc1 [CBK107803]" reported_measurement=84.8

[in] Please look up its viability at 28.5 h, 10 µM: Cc1cc(C(=O)N(C)C2CCCCC2)no1 [CBK057375]
[out] 113
